# test_target: human MCH receptor (Homo sapiens)
# Sequence (Q99705 whole entry): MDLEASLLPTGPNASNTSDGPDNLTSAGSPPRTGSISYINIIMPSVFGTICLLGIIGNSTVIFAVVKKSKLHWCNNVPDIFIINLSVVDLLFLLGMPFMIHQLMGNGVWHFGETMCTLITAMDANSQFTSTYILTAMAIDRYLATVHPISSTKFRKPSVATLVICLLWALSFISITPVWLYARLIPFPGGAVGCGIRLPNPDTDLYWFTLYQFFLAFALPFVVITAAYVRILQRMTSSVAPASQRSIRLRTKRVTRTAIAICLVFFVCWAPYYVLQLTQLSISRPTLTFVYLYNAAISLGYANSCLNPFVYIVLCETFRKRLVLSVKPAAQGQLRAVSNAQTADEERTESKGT
# protocol_text: Functional measurements of cellular calcium flux (FLIPR) to determine IC50 values
# condition_info: recombinant HEK293 cell line expressing the human MCH receptor, calcium flux after addition of agonist (MCH) in presence of ligand
pIC50: −log10 of the molar value.
recorded_metric: pIC50

Completed entries (count: 6):
compound | test_target | pIC50
O=c1n(-c2ccc(Oc3ccccc3)cc2)ccn1C1CCC(N2CCN(CCO)CC2)CC1 (stereo not shown) | human MCH receptor (Homo sapiens) | 5.00 to 5.70
O=c1n(-c2ccc(Oc3ccccc3)cc2)ccn1C1CCC(NC2CN3CCC2CC3)CC1 (stereo not shown) | human MCH receptor (Homo sapiens) | 5.00 to 5.70
CN1CCN(C2CCC(n3ccn(-c4ccc(Oc5ccccc5)cc4)c3=O)CC2)CC1 (stereo not shown) | human MCH receptor (Homo sapiens) | 5.00 to 5.70
CC(=O)N[C@@H]1CCN(C2CCC(n3ccn(-c4ccc(Oc5ccccc5)cc4)c3=O)CC2)C1 (stereo partly shown) | human MCH receptor (Homo sapiens) | 5.70 to 8.00
CN(C)CCO[C@H]1CC[C@H](n2ccn(-c3ccc(OC4CCCC4)cc3)c2=O)CC1 | human MCH receptor (Homo sapiens) | 5.70 to 8.00
O=c1n(-c2ccc(Oc3ccccc3)cc2)ccn1C1CCC(N2CCNCC2)CC1 (stereo not shown) | human MCH receptor (Homo sapiens) | 5.70 to 8.00

Exam item: Entry O=c1n(-c2ccc(Oc3ccccc3)cc2)ccn1C1CCC(N2CCCNCC2)CC1 (stereo not shown) has what pIC50?
Marked response: 5.70 to 8.00
